// data source = paper PMC5540273

# Test system: ERK3;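 also: KINOMEscan kinase panel screen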
# Construct: gene MAPK6
# CONDITION_INFO: concentration: 1 μM, replicates: in singlicate; n = 1
PROPERTY: %Inh (%)
# unit: % | format: bare number

Look over these answered cases.
{"columns": ["COMPOUND", "%Inh, %"],
 "data": [
  ["COCCOCCOc1cc2ncc3c4ccc(C#N)cc4[nH]c3c2cc1OC", 2],
  ["c1ccc(-c2cnc3nccnn23)cc1 [AH20685]", 0],
  ["O=C(NC1CCN(c2ccnc(Nc3ccc(F)cc3)n2)C1)c1cc2ccccc2s1 (stereo not shown) [GSK1379716]", 1]
]}

Please examine the following record next.
The compound identified as Cc1cccc(NC(=O)Nc2ccc(Oc3ncnc4ccn(C)c34)cc2)c1 registered its %Inh at 0
